System: Pseudomonas aeruginosa PP-6
test: MIC (minimum inhibitory concentration)
stated.conditions: Pseudomonas aeruginosa, PP6, Table 3; tobramycin resistant organism
The compounds listed here are annotated with their MIC.
Just the number please, in µg/mL, no unit attached.

Lookup: Write down the reported MIC (system: Pseudomonas aeruginosa PP-6) of NC[C@H]1O[C@H](O[C@H]2[C@H](O)[C@@H](O[C@H]3O[C@H](CO)[C@@H](O)[C@H](N)[C@H]3O)[C@H](NC(=O)C3(O)CCNCC3)C[C@@H]2N)[C@H](N)C[C@@H]1O
Found: 3.13

Lookup: Write down the reported MIC (system: Pseudomonas aeruginosa PP-6) of NC[C@H]1O[C@H](O[C@H]2[C@H](O)[C@@H](O[C@H]3O[C@H](CO)[C@@H](O)[C@H](N)[C@H]3O)[C@H](NC(=O)C3(O)CCNC3)C[C@@H]2N)[C@H](O)[C@@H](O)[C@@H]1O (stereo partly shown)
Found: 12.5
